Hey, just so you know, these numbers are from the supplement of paper PMC3545927.

Kindly state furin cleavage Z-score for each of the entries shown.
- target_system: furin, P09958;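 further: purified furin at 1:10 enzyme:substrate in 50 mM HEPES pH 7.5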
- Sequence (P09958 whole entry): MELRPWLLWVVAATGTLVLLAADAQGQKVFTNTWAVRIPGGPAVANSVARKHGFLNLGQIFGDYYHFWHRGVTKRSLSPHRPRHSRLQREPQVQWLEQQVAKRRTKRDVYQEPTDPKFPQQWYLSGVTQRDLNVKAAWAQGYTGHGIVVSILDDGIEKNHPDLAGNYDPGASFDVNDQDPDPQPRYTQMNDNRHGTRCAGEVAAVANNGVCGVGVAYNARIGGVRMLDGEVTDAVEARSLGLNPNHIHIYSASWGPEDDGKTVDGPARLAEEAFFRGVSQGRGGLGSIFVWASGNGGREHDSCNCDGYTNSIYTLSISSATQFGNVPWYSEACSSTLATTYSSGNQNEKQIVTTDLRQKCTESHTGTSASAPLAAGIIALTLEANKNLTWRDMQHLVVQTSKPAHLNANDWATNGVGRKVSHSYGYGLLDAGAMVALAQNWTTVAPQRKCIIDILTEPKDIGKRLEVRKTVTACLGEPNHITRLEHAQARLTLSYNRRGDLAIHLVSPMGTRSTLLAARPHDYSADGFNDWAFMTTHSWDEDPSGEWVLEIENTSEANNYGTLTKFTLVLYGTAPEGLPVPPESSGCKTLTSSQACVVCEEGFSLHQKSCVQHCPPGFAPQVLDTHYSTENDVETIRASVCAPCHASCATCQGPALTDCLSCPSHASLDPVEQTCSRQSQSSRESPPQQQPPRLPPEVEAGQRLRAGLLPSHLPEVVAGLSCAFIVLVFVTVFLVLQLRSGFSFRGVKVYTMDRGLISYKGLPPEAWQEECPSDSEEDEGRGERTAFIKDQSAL
- measurement_notes: furin cleavage Z-score vs untreated control; higher = more cleavage, active = 3.5 or more, inactive = 1 or less, 8 variable residues between constant flanks
- assay_conditions: 15 min
The other results are listed elsewhere or left out. No count for the full screen is at hand.
The answer should be a number; do not append a unit.

Query: Look up furin cleavage Z-score for this sequence: CAAGRRALRSAGNASASA [FS-1182]
Result: 4.3

Query: Look up furin cleavage Z-score for this sequence: CASYFRKKRSAGNASASA [FS-1288]
Result: 10.4

Query: Look up furin cleavage Z-score for this sequence: CADHWRSRRTAGNASASA [FS-646]
Result: 1.9

Query: Look up furin cleavage Z-score for this sequence: CAEHFRKKRSAGNASASA [FS-1450]
Result: 12

Query: Look up furin cleavage Z-score for this sequence: CARFRRIRGEAGNASASA [FS-2491]
Result: -0.376
